Experiment: MultiTox-Fluor Cytotoxicity Assay - LYMP1-001 - Live Cells (AID 947)
Conditions: LYMP1-001 lymphoblastoid cells, live-cell protease fluorescence viability; series mostly up to 92.2 µM
Results filed as inconclusive are left out. Active and inactive are the calls of the source. Calls follow the shape of the dose curve; as a rule, active = well fitted cell-killing curve with a large enough effect; inconclusive = small, poorly fitted or top-dose-only effect; inactive = flat fitted curve, though single readings scatter.
Hello, when you answer, please use one of the following outcomes: active, inactive

// query What did this assay record as the result for `CN(C)c1ccc2nc3ccc(=[N+](C)C)cc-3sc2c1` ?
// result active

// query What about `CCc1nc(N)nc(N)c1-c1ccc(Cl)cc1` ?
// result inactive

// query What about `c1ccc2[nH]c(-c3cscn3)nc2c1` ?
// result inactive

// query What about `CCCc1cc(=O)[nH]c(=S)[nH]1` ?
// result inactive

// query What about `CS(=O)(=O)OCCCCOS(C)(=O)=O` ?
// result inactive

// query What about `CC(=O)Nc1ccc(O)cc1` ?
// result inactive

// query What about `COc1c2occc2cc2ccc(=O)oc12` ?
// result inactive

====

Test: qHTS of pediatric cancer cell lines to identify multiple opportunities for drug repurposing: Primary screen for OHS-50 cells (AID 1347103); also: nearly all actives have a fitted effect of over 40% in size
Conditions: OHS-50 osteosarcoma viability, CellTiter-Glo luminescence, 48 h; series mostly up to 57.3 µM
Inconclusive results are not listed. Calls of active or inactive are those of the source. Calls come from the whole dose curve; as a rule, active = well fitted cell-killing curve with a large enough effect; inconclusive = small, poorly fitted or top-dose-only effect; inactive = no such curve, though single readings can be large or run the other way.
Hello, when you answer, please use one of the following outcomes: yes = active, no = inactive

[[record]]
smiles_representation = "Nc1ncn([C@H]2C[C@H](O)[C@@H](CO)O2)c(=O)n1"
class_name = "no"

[[record]]
smiles_representation = "CCN(CC)C(=S)SSC(=S)N(CC)CC"
class_name = "yes"

[[record]]
smiles_representation = "CN(C)C(=O)COC(=O)Cc1ccc(OC(=O)c2ccc(N=C(N)N)cc2)cc1"
class_name = "no"

[[record]]
smiles_representation = "NS(=O)(=O)c1cc(C(=O)O)c(NCc2ccco2)cc1Cl"
class_name = "no"

[[record]]
smiles_representation = "C[C@H](Cc1ccc(O)c(O)c1)[C@@H](C)Cc1ccc(O)c(O)c1"
class_name = "yes"

[[record]]
smiles_representation = "CN1C(C(=O)Nc2ccccn2)=C(O)c2sccc2S1(=O)=O"
class_name = "no"


// query What did this assay record as the result for `CCN(CC)CCOc1ccc(Nc2ncc3cc(-c4c(Cl)cccc4Cl)c(=O)n(C)c3n2)cc1` ?
// result yes

// query What about `COc1ccc2cc([C@H](C)C(=O)O)ccc2c1` ?
// result no

// query What about `Cc1nc2n(c(=O)c1CCN1CCC(c3noc4cc(F)ccc34)CC1)CCCC2` ?
// result no

// query What about `Cc1cc2cc3c(C)cc(=O)oc3c(C)c2o1` ?
// result no

// query What about `CN1CCC(=C2c3ccccc3CCc3sccc32)CC1` ?
// result yes

// query What about `c1ccc2[nH]c(-c3cscn3)nc2c1` ?
// result no

====

Tested on: CP217
Assay: qHTS profiling for inhibitors of Plasmodium falciparum proliferation (AID 504749); also: nearly all actives have a fitted effect of over 60% in size
Details: P. falciparum in erythrocytes, SYBR Green DNA, 72 h; series mostly up to 28.7 µM
Inconclusive results are not listed. Calls of active or inactive are those of the source. Calls come from the whole dose curve; as a rule, active = well fitted inhibition curve with a large enough effect; inconclusive = small, poorly fitted or top-dose-only effect; inactive = flat fitted curve, though single readings scatter.
Hello, when you answer, please use one of the following outcomes: active, inactive

[[record]]
molecule = "CN(C)c1ccc2nc3ccc(=[N+](C)C)cc-3sc2c1"
class_name = "active"

[[record]]
molecule = "COCCCOc1ccnc(CS(=O)c2nc3ccccc3[nH]2)c1C (configuration not stated)"
class_name = "inactive"

[[record]]
molecule = "CNC[C@H](O)c1ccc(O)c(O)c1"
class_name = "inactive"

[[record]]
molecule = "CC(C)[C@H](N)C(=O)OCCOCn1cnc2c(=O)[nH]c(N)nc21"
class_name = "inactive"

[[record]]
molecule = "c1ccc2[nH]c(-c3cscn3)nc2c1"
class_name = "inactive"

[[record]]
molecule = "CCCOc1ccc2nc(NC(=O)OC)[nH]c2c1"
class_name = "inactive"


Would you kindly look at the next entry?
// query What did this assay record as the result for `Oc1ccc(OCc2ccccc2)cc1` ?
// result inactive

Data credit: PubChem BioAssay (NCATS)
